biological target: furin, P09958; assay: furin cleavage Z-score vs untreated control; higher = more cleavage, active = 3.5 or more, inactive = 1 or less, 8 variable residues between constant flanks; settings: 7.5 min;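 note: purified furin at 1:10 enzyme:substrate in 50 mM HEPES pH 7.5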
Sequence (P09958 whole entry): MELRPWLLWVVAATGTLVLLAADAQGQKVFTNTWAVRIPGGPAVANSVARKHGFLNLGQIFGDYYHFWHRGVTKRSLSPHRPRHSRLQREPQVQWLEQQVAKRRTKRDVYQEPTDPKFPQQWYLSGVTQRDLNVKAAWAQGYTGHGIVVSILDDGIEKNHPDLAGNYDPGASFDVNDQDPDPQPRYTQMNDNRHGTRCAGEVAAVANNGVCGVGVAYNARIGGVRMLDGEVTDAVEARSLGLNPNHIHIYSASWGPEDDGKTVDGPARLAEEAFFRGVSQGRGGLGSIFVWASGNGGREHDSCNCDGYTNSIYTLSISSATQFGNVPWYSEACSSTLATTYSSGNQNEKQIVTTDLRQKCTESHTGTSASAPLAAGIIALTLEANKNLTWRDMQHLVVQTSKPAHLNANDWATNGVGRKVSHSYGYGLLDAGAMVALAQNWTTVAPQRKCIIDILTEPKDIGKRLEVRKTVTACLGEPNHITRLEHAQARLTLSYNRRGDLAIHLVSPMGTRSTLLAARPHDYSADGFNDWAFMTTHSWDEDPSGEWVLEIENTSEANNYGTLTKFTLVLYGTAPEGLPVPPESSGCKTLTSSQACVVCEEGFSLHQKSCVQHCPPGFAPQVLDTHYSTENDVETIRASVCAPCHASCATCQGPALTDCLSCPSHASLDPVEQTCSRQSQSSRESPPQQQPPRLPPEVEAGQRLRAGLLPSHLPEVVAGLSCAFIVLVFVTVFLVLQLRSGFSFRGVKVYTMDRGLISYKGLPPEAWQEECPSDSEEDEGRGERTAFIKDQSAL
The other results are listed elsewhere or left out. How many sequences the whole screen found active is unknown.
observable: furin cleavage Z-score
The response must contain the number and no unit.

Request: // lookup furin cleavage Z-score for CARPKRCPRSAGNASASA [FS-2055]
Result: 7.03

Request: # iterate: CATIETITLPAGNASASA [HC896]
Result: -1.51

Request: # iterate: CARPSGMFDSAGNASASA [HC914]
Result: -0.826

Request: # iterate: CATTPCSGSVAGNASASA [HC1930]
Result: 0.2
